- measurementTarget: T1, murine GPC3-his protein (murine, UniProt Q8CFZ4 25-558, limits assumed)
- T1 construct: Bought protein; also called mouse GPC3 protein; murine GPC3 protein; not shown: His tag
- T1 sequence (Q8CFZ4 25-558 limits assumed): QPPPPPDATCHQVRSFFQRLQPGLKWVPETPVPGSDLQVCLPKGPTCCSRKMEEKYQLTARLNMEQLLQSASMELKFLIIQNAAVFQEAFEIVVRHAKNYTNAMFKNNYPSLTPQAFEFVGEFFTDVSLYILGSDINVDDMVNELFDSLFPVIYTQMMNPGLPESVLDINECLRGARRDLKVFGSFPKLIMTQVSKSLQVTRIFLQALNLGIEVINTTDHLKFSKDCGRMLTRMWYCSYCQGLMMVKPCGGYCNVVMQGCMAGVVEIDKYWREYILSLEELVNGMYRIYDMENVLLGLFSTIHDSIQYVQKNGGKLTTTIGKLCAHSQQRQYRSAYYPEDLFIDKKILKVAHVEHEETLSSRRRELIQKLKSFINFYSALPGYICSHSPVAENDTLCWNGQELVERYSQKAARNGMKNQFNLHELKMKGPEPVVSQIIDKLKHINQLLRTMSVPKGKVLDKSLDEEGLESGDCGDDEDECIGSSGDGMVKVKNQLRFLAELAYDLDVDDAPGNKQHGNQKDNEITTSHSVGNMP
- assayExplanation: ELISA, murine GPC3-his coated; antibody 13.33 nM
quantityName: OD450 nm

Some entries whose results are on file:
- binder: "hAb001H1aL1a (antibody, human IgG1, V domains shown, Humanized F2.169.2, H1a+L1a) VH: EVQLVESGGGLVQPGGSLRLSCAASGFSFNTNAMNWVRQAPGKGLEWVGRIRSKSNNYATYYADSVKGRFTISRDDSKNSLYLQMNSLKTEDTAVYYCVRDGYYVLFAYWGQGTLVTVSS VL: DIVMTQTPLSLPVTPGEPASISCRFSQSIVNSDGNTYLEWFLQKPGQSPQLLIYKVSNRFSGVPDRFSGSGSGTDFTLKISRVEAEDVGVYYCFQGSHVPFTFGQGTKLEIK"
  OD450 nm: 2.44
- binder: "hAb001H2L1b (antibody, human IgG1, V domains shown, Humanized F2.169.2, H2+L1b) VH: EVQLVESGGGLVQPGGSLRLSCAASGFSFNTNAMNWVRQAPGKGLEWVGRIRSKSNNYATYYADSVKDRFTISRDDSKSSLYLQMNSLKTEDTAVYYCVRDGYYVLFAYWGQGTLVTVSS VL: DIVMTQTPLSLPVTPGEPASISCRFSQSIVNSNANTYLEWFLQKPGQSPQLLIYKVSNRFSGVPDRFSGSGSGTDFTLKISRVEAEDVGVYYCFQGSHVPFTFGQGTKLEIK"
  OD450 nm: 2.58

Would you kindly look at the next entry?
Ask: What does the record list as OD450 nm for hAb001H1aL1 (antibody, human IgG1, V domains shown, Humanized F2.169.2, H1a+L1) VH: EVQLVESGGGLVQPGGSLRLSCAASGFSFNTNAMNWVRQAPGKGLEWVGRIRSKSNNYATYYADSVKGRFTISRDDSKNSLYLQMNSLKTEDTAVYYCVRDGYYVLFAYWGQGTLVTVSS VL: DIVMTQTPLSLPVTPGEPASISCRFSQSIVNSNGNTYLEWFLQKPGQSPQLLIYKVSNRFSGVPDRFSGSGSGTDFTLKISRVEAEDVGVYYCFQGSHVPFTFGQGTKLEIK ?
Reply: 2.63
